Tested on: FGR
details: Compound Concentration (nM):1000;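 also: KINOMEscan scanMAX binding as percent activity remaining versus control; lower means stronger binding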
Below: a set of entries, each annotated with reported Percent Control.
Give the number; % is assumed, so skip it.

Solved cases below.
COC(=O)Nc1nc2ccc(Oc3ccc(NC(=O)Nc4cc(C(F)(F)F)ccc4F)cc3)cc2s1.Cl [GW693917A]; 71
CC(C)COC(=O)c1ccc2c(c1)/C(=C/Nc1ccc(S(N)(=O)=O)cc1)C(=O)N2 [GW416981X]; 99

Q: // lookup Percent Control | system=FGR | key= C/C(Nc1ccc(S(N)(=O)=O)cc1)=C1/C(=O)Nc2ccccc21 [GW335962X]
Result: 78

Q: // lookup Percent Control | system=FGR | key= NS(=O)(=O)c1ccc(Nc2ncc(-c3ccccc3)o2)cc1 [GW572399X]
Result: 98

----------
Tested on: MST4
details: Compound Concentration (nM):1000
measuredMetric: Percent Control (%)
Give the number; % is assumed, so skip it.

Solved cases below.
C[C@@H](Oc1cc(-n2cnc3ccc(OC4CCN(C)CC4)cc32)sc1C(N)=O)c1ccccc1Cl [GSK579289A]; 59
COC(=O)Nc1nc2ccc(Oc3ccc(NC(=O)Nc4cc(C(F)(F)F)ccc4F)cc3)cc2s1.Cl [GW693917A]; 72

Q: For the compound shown here, "COc1cc(C)c(N(C)C(=O)CN(C)C)cc1Nc1nc(Nc2cccc(F)c2C(N)=O)c2cc[nH]c2n1" , give the reported Percent Control.
Result: 100

Q: For the compound shown here, Cc1cc(O)cc(C)c1/C=C/c1cncc(C(N)=O)c1 [GW435821X] , give the reported Percent Control.
Result: 69

Q: For the compound shown here, Cl.O=C(Nc1ccc(Oc2ccc3[nH]c(NC(=O)c4ccccc4)nc3c2)cc1)Nc1cc(C(F)(F)F)ccc1F [GW709042A] , give the reported Percent Control.
Result: 69

Q: For the compound shown here, Nc1ncnc2occ(-c3ccc(NC(=O)Nc4cc(C(F)(F)F)ccc4F)cc3)c12 [GW770249X] , give the reported Percent Control.
Result: 59

----------
Test system: CAMK1D
details: Compound Concentration (nM):1000
measuredMetric: Percent Control (%)
Give the number; % is assumed, so skip it.

Solved cases below.
NS(=O)(=O)c1ccc(Nc2ncc(-c3ccccc3)o2)cc1 [GW572399X]; 100
Cl.O=C(O[C@H]1CN[C@H](C#Cc2cc3ncnc(Nc4ccc5c(cnn5Cc5ccccc5)c4)c3s2)C1)N1CCOCC1 [GSK200398A]; 100
Cl.O=S1CCN(Cc2ccc(-c3ccc4ncnc(Nc5ccc(OCc6ccccc6)c(F)c5)c4c3)o2)CC1 [GW576924A]; 100
COc1cc2ncn(-c3cc(O[C@H](C)c4ccccc4Cl)c(C(N)=O)s3)c2cc1OC [GSK237701A]; 91
CN(C)c1cc2c(Nc3ccc4c(cnn4Cc4ccccc4)c3)ncnc2cn1 [GW282974X]; 96
COc1ccc2[nH]c3c4[nH]c5ccc(OC)cc5c4c4c(c3c2c1)C(=O)NC4=O [GW296115X]; 64

Q: For the molecule shown here, COc1ccc2c(-c3ccnc(Nc4cccc(OC(F)(F)F)c4)n3)cnn2n1 [GW810372X] , give the reported Percent Control.
Result: 100

Q: For the molecule shown here, COc1cc(/C=N/Nc2ncnc3[nH]ncc23)ccc1O [GW578748X] , give the reported Percent Control.
Result: 85

----------
Tested on: TIE2
Construct: gene TEK
details: Compound Concentration (nM):1000
measuredMetric: Percent Control (%)
Give the number; % is assumed, so skip it.

Solved cases below.
O=C(Nc1n[nH]c2nc(-c3ccc(O)cc3)c(Br)cc12)C1CC1 [SB-725317]; 100
CN(C)CCNC(=O)Nc1ccc(N(C)c2ccnc(Nc3ccc(CS(C)(=O)=O)cc3)n2)cc1.Cl [GW830900A]; 100

Q: For the compound shown here, Cc1cc(O)cc(C)c1/C=C/c1cncc(C(N)=O)c1 [GW435821X] , give the reported Percent Control.
Result: 100

----------
Below: a set of entries, each annotated with reported Percent Control.
System: JNK3
Construct: gene MAPK10
details: Compound Concentration (nM):1000
Give the number; % is assumed, so skip it.

Solved cases below.
Cl.O=S1CCN(Cc2ccc(-c3ccc4ncnc(Nc5ccc(OCc6ccccc6)c(F)c5)c4c3)o2)CC1 [GW576924A]; 100
Cl.O=C(Nc1ccc(Oc2ccc3[nH]c(NC(=O)c4ccco4)nc3c2)cc1)Nc1cc(C(F)(F)F)ccc1F [GW683134A]; 100
O=C1Nc2ccc(C(=O)c3ccco3)cc2C1=Cc1cc(Cl)c(O)c(Cl)c1 [GW406108X]; 64

Q: // lookup Percent Control | system=JNK3 | key= NS(=O)(=O)c1ccc(N/N=C2\C(=O)Nc3ccc(-c4cnco4)cc32)cc1 [GW276655]
Result: 83

Q: // lookup Percent Control | system=JNK3 | key= COC(=O)Nc1nc2ccc(Oc3ccc(NC(=O)Nc4cc(C(F)(F)F)ccc4F)cc3)cc2s1.Cl [GW693917A]
Result: 79

Q: // lookup Percent Control | system=JNK3 | key= COc1cccc(-n2ncc3c(N/N=C/c4ccncc4)ncnc32)c1 [GW784752X]
Result: 96

Q: // lookup Percent Control | system=JNK3 | key= COc1cc2ncnc(Nc3ccc4c(cnn4Cc4ccccc4)c3)c2cc1OC.Cl [GW282449A]
Result: 100

Q: // lookup Percent Control | system=JNK3 | key= O=C(Nc1n[nH]c2nc(-c3ccc(O)cc3)c(Br)cc12)C1CC1 [SB-725317]
Result: 80

Q: // lookup Percent Control | system=JNK3 | key= NS(=O)(=O)c1ccc(N/N=C2\C(=O)Nc3ccc(Cl)cc32)cc1 [GW280670X]
Result: 100

Q: // lookup Percent Control | system=JNK3 | key= COc1cc(N2CCN(C(C)C)CC2)ccc1Nc1nc(Nc2ccc(F)cc2C(=O)NC[C@@H](O)CO)c2cc[nH]c2n1 [GSK1392956A]
Result: 0.1

Q: // lookup Percent Control | system=JNK3 | key= C/C(Nc1ccc(S(N)(=O)=O)cc1)=C1/C(=O)Nc2ccccc21 [GW335962X]
Result: 30

Q: // lookup Percent Control | system=JNK3 | key= COc1ccc2c(-c3ccnc(Nc4cccc(OC(F)(F)F)c4)n3)cnn2n1 [GW810372X]
Result: 41

Q: // lookup Percent Control | system=JNK3 | key= CCS(=O)(=O)c1ccc(OC)c(Nc2ncc(-c3cccc(OC)c3)o2)c1 [GW580509X]
Result: 95

----------
Test system: EPHA3
details: Compound Concentration (nM):1000
Below: a set of entries, each annotated with reported Percent Control.
Your answer should be a number followed by the unit of measure.

Cl.O=C(O[C@H]1CN[C@H](C#Cc2cc3ncnc(Nc4ccc5c(cnn5Cc5ccccc5)c4)c3s2)C1)N1CCOCC1 [GSK200398A]; 94%

Q: For the compound shown here, CN(C)CCNC(=O)Nc1ccc(N(C)c2ccnc(Nc3ccc(CS(C)(=O)=O)cc3)n2)cc1.Cl [GW830900A] , give the reported Percent Control.
Result: 85%

Q: For the compound shown here, NS(=O)(=O)c1ccc(N/N=C2\C(=O)Nc3ccc(-c4cnco4)cc32)cc1 [GW276655] , give the reported Percent Control.
Result: 85%

Q: For the compound shown here, Cl.O=C(Nc1ccc(Oc2ccc3[nH]c(NC(=O)c4ccccc4)nc3c2)cc1)Nc1cc(C(F)(F)F)ccc1F [GW709042A] , give the reported Percent Control.
Result: 100%

Q: For the compound shown here, COc1ccc2cc(-c3c(-c4ccncc4)nc(-c4ccc(S(C)(=O)=O)cc4C)n3C)ccc2c1 [SB-633825] , give the reported Percent Control.
Result: 90%

Q: For the compound shown here, NS(=O)(=O)c1ccc(Nc2ncc(-c3ccccc3)o2)cc1 [GW572399X] , give the reported Percent Control.
Result: 100%

Q: For the compound shown here, CC1=C(C(=O)Nc2ccc3[nH]ncc3c2)C(c2ccc(Cl)c(Cl)c2)CC(=O)N1 (centres unmarked) [GSK299115A] , give the reported Percent Control.
Result: 86%

Q: For the compound shown here, CCn1c(-c2nonc2N)nc2c(C#CC(C)(C)O)nc(OCCNC)cc21.Cl [GSK949675] , give the reported Percent Control.
Result: 100%

Q: For the compound shown here, COc1cc(C=NNc2ncnc3c2cnn3-c2ccccc2)ccc1O [GW513184X] , give the reported Percent Control.
Result: 100%

----------
Test system: ABL1-phosphorylated
details: Compound Concentration (nM):1000
measuredMetric: Percent Control (%)
Give the number; % is assumed, so skip it.

Q: For the compound shown here, CC(C)COC(=O)c1ccc2c(c1)/C(=C/Nc1ccc(S(N)(=O)=O)cc1)C(=O)N2 [GW416981X] , give the reported Percent Control.
Result: 100

Q: For the compound shown here, O=C(Nc1n[nH]c2nc(-c3ccc(O)cc3)c(Br)cc12)C1CC1 [SB-725317] , give the reported Percent Control.
Result: 31

Q: For the compound shown here, COc1ccc(COc2ccc(Cc3cnc(N)nc3N)cc2OC)cc1 [GW632580X] , give the reported Percent Control.
Result: 76

Q: For the compound shown here, Cc1cc(O)cc(C)c1/C=C/c1cncc(C(N)=O)c1 [GW435821X] , give the reported Percent Control.
Result: 14
